Below, each entry is listed with its recorded Pas. (passivity, sedation, prostation), evaluation between 0 and 3.
Experiment: Sedative action: Irwin Test (passivity, ataxia)
Settings: rat, i.p., 80 mg/kg; 1, 2 and 3 hours after treatment
PROPERTY NAME: Pas. (passivity, sedation, prostation), evaluation between 0 and 3

>  <COMPOUND>
O=C(O)c1cnn(CCCCN2CCN(C(c3ccccc3)c3ccccc3)CC2)c1 [Example 4]

>  <OBSERVED>
0.9

$$$$
>  <COMPOUND>
Brc1cnn(CCCN2CCN(C(c3ccccc3)c3ccccc3)CC2)c1 [Example 3]

>  <OBSERVED>
0

$$$$
>  <COMPOUND>
Cc1cnn(CCCCN2CCN(C(c3ccccc3)c3ccccc3)CC2)c1 [Example 5]

>  <OBSERVED>
0.7

$$$$
>  <COMPOUND>
c1ccc(C(c2ccccc2)N2CCN(CCCCn3ccnc3)CC2)cc1 [Example 6]

>  <OBSERVED>
1.3

$$$$
>  <COMPOUND>
Clc1cnn(CCCCN2CCN(C(c3ccccc3)c3ccccc3)CC2)c1 [Example 2]

>  <OBSERVED>
0

$$$$

====

Below, each entry is listed with its recorded Atax. (ataxia, alterations of coordination in locomotion), evaluated between 0 and 3.
Assay: Sedative action: Irwin Test (passivity, ataxia)
Details: rat, i.p., 80 mg/kg; 1, 2 and 3 hours after treatment
PROPERTY NAME: Atax. (ataxia, alterations of coordination in locomotion), evaluated between 0 and 3

>  <COMPOUND STRUCTURE STRING>
O=C(O)c1cnn(CCCCN2CCN(C(c3ccccc3)c3ccccc3)CC2)c1

>  <OBSERVED>
1

$$$$
>  <COMPOUND STRUCTURE STRING>
Clc1cnn(CCCCN2CCN(C(c3ccccc3)c3ccccc3)CC2)c1

>  <OBSERVED>
0.4

$$$$
>  <COMPOUND STRUCTURE STRING>
Cc1cnn(CCCCN2CCN(C(c3ccccc3)c3ccccc3)CC2)c1

>  <OBSERVED>
0.5

$$$$
>  <COMPOUND STRUCTURE STRING>
c1ccc(C(c2ccccc2)N2CCN(CCCCn3ccnc3)CC2)cc1

>  <OBSERVED>
0.3

$$$$
>  <COMPOUND STRUCTURE STRING>
Brc1cnn(CCCN2CCN(C(c3ccccc3)c3ccccc3)CC2)c1

>  <OBSERVED>
0.7

$$$$

====

System: death induced by 48/80
Test: "In vivo" antihistaminic activity: protection from death induced by compound 48/80 in the rat
Conditions: ip, 4 h; i.p., rat; 48/80 0.5 mg/kg i.v. after 60 minutes; survival four hours after injection; read-out: ED-50 (dose capable of protecting 50% of the animals from death induced by 48/80)
Below, each entry is listed with its recorded log10 of ED50.
PROPERTY NAME: log10 of ED50 (log10 of the value in mg/kg)

>  <COMPOUND>
CN(C)CCOC(c1ccccc1)c1ccccc1 [Difenhidramine, reference compound]

>  <MEASUREMENT TARGET>
death induced by 48/80

>  <log10 of ED50>
0.73

$$$$
>  <COMPOUND>
Clc1cnn(CCCCN2CCN(C(c3ccccc3)c3ccccc3)CC2)c1 [Example 2]

>  <MEASUREMENT TARGET>
death induced by 48/80

>  <log10 of ED50>
0.48

$$$$
>  <COMPOUND>
c1ccc(C(c2ccccc2)N2CCN(CCCCn3cccc3)CC2)cc1 [Example 8]

>  <MEASUREMENT TARGET>
death induced by 48/80

>  <log10 of ED50>
0.83

$$$$
>  <COMPOUND>
Brc1cnn(CCCCN2CCN(C(c3ccccc3)c3ccccc3)CC2)c1 [Example 1]

>  <MEASUREMENT TARGET>
death induced by 48/80

>  <log10 of ED50>
0.51

$$$$
>  <COMPOUND>
O=C(O)c1cnn(CCCCN2CCN(C(c3ccccc3)c3ccccc3)CC2)c1 [Example 4]

>  <MEASUREMENT TARGET>
death induced by 48/80

>  <log10 of ED50>
-0.21

$$$$
>  <COMPOUND>
Cc1cnn(CCCCN2CCN(C(c3ccccc3)c3ccccc3)CC2)c1 [Example 5]

>  <MEASUREMENT TARGET>
death induced by 48/80

>  <log10 of ED50>
-0.21

$$$$
>  <COMPOUND>
c1ccc(C(c2ccccc2)N2CCN(CCCCn3cncn3)CC2)cc1 [Example 7]

>  <MEASUREMENT TARGET>
death induced by 48/80

>  <log10 of ED50>
-0.22

$$$$
>  <COMPOUND>
c1ccc(C(c2ccccc2)N2CCN(CCCCn3ccnc3)CC2)cc1 [Example 6]

>  <MEASUREMENT TARGET>
death induced by 48/80

>  <log10 of ED50>
0.40

$$$$
>  <COMPOUND>
Brc1cnn(CCCN2CCN(C(c3ccccc3)c3ccccc3)CC2)c1 [Example 3]

>  <MEASUREMENT TARGET>
death induced by 48/80

>  <log10 of ED50>
1.00

$$$$
